Catalogue of EC50 readings, one per entry.
System: C. elegans L1 growth, INVAPP imaging, 5 days
Assay: C. elegans growth inhibition, confirmation, whole organism (AID 1259335)

For orientation, consider the following solved cases.
smiles-input | system-name | property-label | recorded-value
COC(=O)C1=C(C)NC(C)=C(C(=O)OC(C)C)[C@H]1c1cccc2nonc12 | C. elegans L1 growth, INVAPP imaging, 5 days | EC50 | 1600 nM
CCc1nn(C)c(C(=O)NCc2ccc(Oc3ccc(C)cc3)cc2)c1Cl | C. elegans L1 growth, INVAPP imaging, 5 days | EC50 | 200 nM
O=C(Nc1ccc2c(c1)B(O)OC2)c1ccccc1C(F)(F)F | C. elegans L1 growth, INVAPP imaging, 5 days | EC50 | 4300 nM
COC(=O)Nc1nc2ccc(C(=O)c3ccccc3)cc2[nH]1 | C. elegans L1 growth, INVAPP imaging, 5 days | EC50 | 1100 nM
Cc1cc(C(=O)Nc2ccc(-c3ccccc3)cc2)no1 | C. elegans L1 growth, INVAPP imaging, 5 days | EC50 | 2500 nM

## Task I would be grateful if you could share the reported EC50 for Nc1ccc(C(=O)Nc2ccc(-c3nc4ccccc4o3)cc2)cc1 .
## Result 6200 nM

## Task I'd like to know its EC50. The compound in question is O=C(Nc1ccc(F)c(-c2nc3ncc(-c4ccccc4)cc3[nH]2)c1)N1CCCC1
## Result 3300 nM
